Molecular target: human GPR40 (Homo sapiens)
Test: Inositol phosphate accumulation assay (IP1 HTRF) in CHO-K1 cells expressing human GPR40
Conditions: 90 min
pEC50: −log10 of the molar value.
Entries and their measured pEC50 follow.

Solved entries (count: 5):
CCP(=O)(O)CC(c1cccc(OCc2ccc(-c3cc(OC)ncc3F)c(CN(C(C)C)C(C)C)c2)c1)C1CC1 (single isomer, unassigned) [Compound 20]; < 6.00
COc1cc(-c2ccc(OCc3cccc(C(CP(C)(=O)O)C4CC4)c3)cc2CN(C(C)C)C(C)C)c(F)cn1 (stereo not drawn); 6.60 to 7.30
CO[C@H](c1cc(COc2cc([C@@H](CP(C)(=O)O)C3CC3)ccn2)ccc1-c1cc(O)ccc1F)C(C)(C)C; ≥ 7.30
COc1cc(-c2ccc(COc3cccc([C@H](C4CC4)[C@@](C)(F)C(=O)NS(C)(=O)=O)c3)cc2CN(C(C)C)C(C)C)c(F)cn1; ≥ 7.30
COc1ccc(F)c(-c2ccc(COc3cccc(C(C)CP(C)(=O)O)c3)cc2[C@@H](OC)C(C)(C)C)c1 (single isomer, unassigned) [Compound 32]; ≥ 7.30

Continue with the molecule presented below.
Query :: Reported pEC50, molecule COc1cc(-c2ccc(COc3cc(C(C)CP(C)(=O)O)ccn3)cc2[C@@H](OC)C(C)(C)C)c(F)cn1 (single isomer, unassigned) [Compound 37] : ____
Result :: ≥ 7.30

----------
Target: human GPR40 (Homo sapiens, UniProt O14842)
Sequence (O14842 whole entry): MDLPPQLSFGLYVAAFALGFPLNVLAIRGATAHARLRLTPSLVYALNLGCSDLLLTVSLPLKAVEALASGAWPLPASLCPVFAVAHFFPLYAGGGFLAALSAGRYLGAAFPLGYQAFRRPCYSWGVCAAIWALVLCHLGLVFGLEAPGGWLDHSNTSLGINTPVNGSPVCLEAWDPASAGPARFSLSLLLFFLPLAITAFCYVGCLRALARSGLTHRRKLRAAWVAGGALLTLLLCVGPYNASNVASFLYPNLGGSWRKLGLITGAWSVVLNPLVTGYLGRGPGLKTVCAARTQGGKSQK
Assay: Inositol phosphate accumulation assay (IP1 HTRF) in CHO-K1 cells expressing human GPR40
Conditions: 90 min
Experimental: CHO-K1 cells expressing human GPR40 were purchased from DiscoverX (95-1005C2). HEK293 cells expressing mouse FFAR1 were prepared using a mouse FFAR1 carrying plasmid purchased from OriGene Technologies (MR222997). […] Assay ready frozen (ARF) cells were prepared and used throughout the study. […] […] was measured using ClarioSTAR plate reader, calculating the ratio between emissions at 665 nm and 620 nm (HTRF ratio). […] EC50 and Max activity values were determined using a standard 4-parameter fit.
parameter: EC50

COc1cc(-c2ccc(COc3cccc(C(C4CC4)C(C)P(=O)(O)OC)c3)cc2CN(C(C)C)C(C)C)c(F)cn1 (stereo not drawn); > 1000 nM
COc1cc(-c2ccc(COc3cccc(C(CP(C)(=O)O)C4CC4)c3)cc2CN(C(C)C)C(C)C)c(F)cn1 (single isomer, unassigned) [Compound 10]; 50 to 250 nM
COc1ccc(F)c(-c2ccc(COc3cc([C@@H](CP(C)(=O)O)C4CC4)ccn3)cc2[C@@H](OC)C(C)(C)C)c1; ≤ 50 nM
COc1cc(-c2ccc(COc3cc(C(C)CP(C)(=O)O)ccn3)cc2[C@@H](OC)C(C)(C)C)c(F)cn1 (single isomer, unassigned) [Compound 38]; ≤ 50 nM
COc1cc(-c2ccc(COc3cccc([C@@H](CP(C)(=O)O)C4CC4)c3)cc2[C@@H](OC)C(C)(C)C)c(F)cn1; ≤ 50 nM

Continue with the compound presented below.
Query :: Reported EC50, compound COc1cc(-c2ccc(COc3cccc(C(CP(C)(=O)O)C4CC4)c3)cc2CN(C(C)C)C(C)C)c(F)cn1 (single isomer, unassigned) [Compound 12] : ____
Result :: > 1000 nM

----------
Target: human GPR40 (Homo sapiens, UniProt O14842)
Assay: Inositol phosphate accumulation assay (IP1 HTRF) in CHO-K1 cells expressing human GPR40
Settings: 90 min
pEC50: −log10 of the molar value.
Entries and their measured pEC50 follow.

Solved entries (count: 6):
COc1cc(-c2ccc(COc3cccc(C(C)CP(C)(=O)O)c3)cc2CN(C(C)C)C(C)C)c(F)cn1 (single isomer, unassigned) [Compound 35]; 6.60 to 7.30
COc1cc(-c2ccc(COc3cccc(C(CP(C)(=O)O)C4CC4)c3)cc2CN(C(C)C)C(C)C)c(F)cn1 (single isomer, unassigned) [Compound 13]; 6.60 to 7.30
COc1ccc(F)c(-c2ccc(COc3cc(C(C)CP(C)(=O)O)ccn3)cc2[C@@H](OC)C(C)(C)C)c1 (single isomer, unassigned) [Compound 40]; ≥ 7.30
COc1cc(-c2ccc(COc3cccc(C[C@@H](C)P(C)(=O)O)c3)cc2[C@@H](OC)C(C)(C)C)c(F)cn1 [Compound 41]; ≥ 7.30
COc1cc(-c2ccc(COc3cc(C(C)CP(C)(=O)O)ccn3)cc2CN(C(C)C)C(C)C)c(F)cn1 (single isomer, unassigned) [Compound 39]; < 6.00
COc1cc(-c2ccc(COc3cccc(C(CS(=O)(=O)O)C4CC4)c3)cc2CN(C(C)C)C(C)C)c(F)cn1 (stereo not shown) [Compound 1]; < 6.00

Query :: Reported pEC50, molecule COc1cc(-c2ccc(COc3cccc(C(C4CC4)C(C)(C)P(=O)(O)O)c3)cc2CN(C(C)C)C(C)C)c(F)cn1 (stereo not shown) [Compound 22] : ____
Result :: < 6.00

Query :: Reported pEC50, molecule COc1cc(-c2ccc(COc3cccc(C(CS(=O)(=O)O)C4CC4)c3)cc2CN(C(C)C)C(C)C)c(F)cn1 (single isomer, unassigned) [Compound 14] : ____
Result :: < 6.00

Query :: Reported pEC50, molecule COc1ccc(F)c(-c2ccc(COc3cccc(C(C)CP(C)(=O)O)c3)cc2[C@@H](OC)C(C)(C)C)c1 (single isomer, unassigned) [Compound 33] : ____
Result :: ≥ 7.30

Query :: Reported pEC50, molecule COc1cc(-c2ccc(COc3cccc(C(CP(C)(=O)O)C4CC4)c3)c(CN(C(C)C)C(C)C)c2)c(F)cn1 (stereo not shown) [Compound 16] : ____
Result :: < 6.00

Query :: Reported pEC50, molecule COc1cccc(-c2ccc(COc3cccc([C@@H](CP(C)(=O)O)C4CC4)c3)cc2[C@@H](OC)C(C)(C)C)c1 [Compound 29] : ____
Result :: ≥ 7.30

Query :: Reported pEC50, molecule COc1cc(-c2ccc(OCc3cccc(C(CP(=O)(O)O)C4CC4)c3)cc2CN(C(C)C)C(C)C)c(F)cn1 (stereo not shown) [Compound 9] : ____
Result :: < 6.00

Query :: Reported pEC50, molecule COc1cc(-c2ccc(COc3cc([C@@H](CP(C)(=O)O)C4CC4)ccn3)cc2[C@@H](OC)C(C)(C)C)c(F)cn1 [Compound 28] : ____
Result :: ≥ 7.30

----------
Molecular target: human GPR40 (Homo sapiens, UniProt O14842)
Assay: Inositol phosphate accumulation assay (IP1 HTRF) in CHO-K1 cells expressing human GPR40
Details: 90 min
parameter: EC50

Solved entries (count: 5):
CCP(=O)(O)CC(c1cccc(OCc2ccc(-c3cc(OC)ncc3F)c(CN(C(C)C)C(C)C)c2)c1)C1CC1 (single isomer, unassigned) [Compound 18]; > 1000 nM
COc1cc(-c2ccc(COc3cccc(C(C4CC4)C(C)P(=O)(O)O)c3)cc2CN(C(C)C)C(C)C)c(F)cn1 (stereo not shown) [Compound 6]; > 1000 nM
COc1ccc(F)c(-c2ccc(COc3cccc([C@@H](CP(C)(=O)O)C4CC4)c3)cc2[C@@H](OC)C(C)(C)C)c1 [Compound 24]; ≤ 50 nM
COc1cc(-c2ccc(COc3cccc(C(C)CP(C)(=O)O)c3)cc2CN(C(C)C)C(C)C)c(F)cn1 (single isomer, unassigned) [Compound 36]; > 1000 nM
CO[C@H](c1cc(COc2cccc([C@@H](CP(C)(=O)O)C3CC3)c2)ccc1-c1cc(O)ccc1F)C(C)(C)C [Compound 26]; ≤ 50 nM

Query :: Reported EC50, compound COc1cc(-c2ccc(COc3cccc(C(C)CP(C)(=O)O)c3)cc2[C@@H](OC)C(C)(C)C)c(F)cn1 (stereo partly shown) [Compound 34] : ____
Result :: ≤ 50 nM

Query :: Reported EC50, compound COc1cc(-c2ccc(COc3cccc(C(CP(=O)(O)OC)C4CC4)c3)cc2CN(C(C)C)C(C)C)c(F)cn1 (stereo not shown) [Compound 5] : ____
Result :: > 1000 nM

----------
Experiment: In vivo plasma levels in mice after oral gavage, with unbound exposure from plasma protein binding
Conditions: mouse, plasma; male C57BL/6J mice, 30 mg/kg oral gavage, 5 h post-dose; read-out: Exposure (nM), total exposure in plasma
parameter: concentration at 5 h (nM)

COc1cccc(-c2ccc(COc3cccc([C@@H](CP(C)(=O)O)C4CC4)c3)cc2[C@@H](OC)C(C)(C)C)c1; 140
COc1ccc(F)c(-c2ccc(COc3cccc([C@@H](CP(C)(=O)O)C4CC4)c3)cc2[C@@H](OC)C(C)(C)C)c1; 145

Entry source: patent US20230151037A1
